Origin of values: the Deep4Chem optical property database

assay: photoluminescence quantum yield (fraction); solvent given as SMILES; settings: in CC#N
Listed molecules paired with reported photoluminescence quantum yield
Could you keep your reply to the number by itself?

COc1c2ccccc2c(OC)c2c1c1c(C)ccc(OC)c1n2C
0.26

### Prompt Entry c1ccc2c(c1)c1ccccc1c1[nH]c(-c3ccc(-c4nc5c6ccccc6c6ccccc6c5[nH]4)cc3)nc21 : reported photoluminescence quantum yield = ?
### Response 0.76

### Prompt Can you share its photoluminescence quantum yield? I mean this molecule: Cc1cc2c(o1)=CC1=Cc3cc4oc(C)cc4n3[B-](F)(F)[N+]=21
### Response 0.95

### Prompt Given the molecule COc1cc2c3c(c4cc(OC)c(OC)c(OC)c4c2c(OC)c1OC)=[N+]1C(=C(c2c(C)cc(C)cc2C)c2cc4c5cc(OC)c(OC)c(OC)c5c5c(OC)c(OC)c(OC)cc5c4n2[B-]1(F)F)C=3 , what is its reported photoluminescence quantum yield?
### Response 0.001

### Prompt Record request: photoluminescence quantum yield value, item F[B-]1(F)n2ccnc2-c2cccc[n+]21
### Response 0.28

### Prompt May I ask what photoluminescence quantum yield has been recorded for COC(=O)C(Cc1ccc2oc(-c3ccc4c(c3)c3ccccc3n4-c3ccccc3)nc2c1)NC(=O)OC(C)(C)C (stereo not drawn) ?
### Response 0.99

### Prompt For the molecule CCCCCCCCCCCCC(CCCCCCCCCC)Cn1c2cc(/C=C/C=C(C#N)C#N)c3cccc4c5cccc6c(/C=C/C=C(C#N)C#N)cc1c(c65)c2c34 (stereo not drawn) , what photoluminescence quantum yield is on record?
### Response 0.061

### Prompt # lookup: photoluminescence quantum yield of COc1ccc(/C=C/c2nc3c4ccccc4c4ccccc4c3o2)cc1
### Response 0.35

### Prompt What does the data say about its photoluminescence quantum yield? Entry: COc1cc(/C=C/c2ccccc2)cc(OC)c1
### Response 0.32

### Prompt So what's the measured photoluminescence quantum yield for this one? COC(=O)C(NC(=O)OC(C)(C)C)c1ccc2oc(-c3cc(C(F)(F)F)cc(C(F)(F)F)c3)nc2c1 (stereo not drawn)
### Response 0.46

### Prompt I am curious: what photoluminescence quantum yield value has been reported for COc1ccc(/C=C/c2ccccc2)cc1 ?
### Response 0.007
